System: peptide-producing enzyme (Mono S fraction) from Empedobacter brevis strain FERM BP-8113
run-description: Enzyme substrate specificity (1)-(10), (13), (14)
Format: biochemical
protocol-conditions: carboxy component 100 mM, amine component 150 mM, 0.1 unit enzyme, 25° C., reaction time 3 hr
Excerpt: Ester specificity was examined in the case of using L-amino acid ester for the carboxy component. […] The amounts of L-Ala-L-Gln produced in this reaction are shown in Table 4 (HCl represents hydrochloride in Table 4). […] (The “+” mark indicates those peptides for which production was confirmed but which were unable to be quantified due to the absence of a standard.) […] […] Substrate specificity was additionally assessed using the same enzyme fraction as that used in Example 5. […]
Non-standard residues stand in square brackets, D forms with d. Residues, ends and D or L forms follow the SMILES beside them. Tle = CC(C)(C)[C@H](N)C(=O)O; NMeA = CN[C@@H](C)C(=O)O; Aib = CC(C)(N)C(=O)O
For each of the compounds below, state its Produced peptide.
Numbers only, in mM.

For every item in the list below, what is its measured Produced peptide?
1. CC(C)(N)C(=O)N[C@@H](Cc1ccccc1)C(=O)O [H-Aib-Phe-OH] (H-[Aib]-Phe-OH)
2. C[C@H](N)C(=O)N[C@H](C(=O)O)C(C)(C)C [H-Ala-t-Leu-OH] (H-Ala-[Tle]-OH)
3. CC(C)(N)C(=O)N[C@@H](CCC(N)=O)C(=O)O [H-Aib-H-Gln-OH] (H-[Aib]-Gln-OH)
4. CN[C@@H](C)C(=O)N[C@@H](CCC(N)=O)C(=O)O [H-N-Me-Ala-H-Gln-OH] (H-[NMeA]-Gln-OH)

17.2
0.4
18.8
0.5
